target: Ubiquitin carboxyl-terminal hydrolase 30 (Homo sapiens); test: inhibitors of human USP30 deubiquitinase (AID 1645860); conditions: purified USP30, Ub-rhodamine cleavage fluorescence; at 25 µM; stronger effect = higher value
The whole screen tested about 47,000 compounds, of which about 2,500 (5.3%) were called active. For the sample, actives were picked, then their nearest neighbours and some compounds at random.
Decision: inhibition >= 20% yields Met, all other cases yield Not met.

Request: Has C[C@@H]1O[C@@H](OC2[C@H](Oc3cc(O)c4c(c3)OC(c3ccc(O)cc3)CC4=O)O[C@H](CO)[C@@H](O)[C@@H]2O)[C@H](O)[C@H](O)[C@H]1O (some centres undefined) a recorded inhibition greater than or equal to 20%?
Response: Met

Request: What do you get for CC(=O)N1CSCC1C(=O)N1CCC2(CC1)CNC(=O)c1ccccc1O2 (centres undefined) ?
Response: Not met

Request: Then what about the compound O=C(Cn1cc(S(=O)(=O)Cc2ccccc2Cl)c2ccccc21)N1CCCCCC1 ?
Response: Not met

Request: Query O=C(CSc1ncnc2c1oc1ccccc12)NC1CCCC1 next
Response: Met

Request: // next record CC(=O)Nc1cccc(NC(=O)CSc2cn(CC(=O)N3CCC(C)CC3)c3ccccc23)c1
Response: Not met

Request: Same lookup for O=C(Cn1cc(SCc2cccc(F)c2)c2ccccc21)N1CCCCCC1 , please.
Response: Met

Request: Would you kindly repeat that for Cc1cccc(NS(=O)(=O)c2ccc3nnc(C)n3c2)c1 ?
Response: Not met

Request: Item: Cc1nc2nc(NCc3ccccc3)[nH]n2c(=O)c1CCC(=O)N1CCC(C)CC1
Response: Not met

// data source = PubChem BioAssay AID1645860
